molecular target: human D2R/β-arrestin (Homo sapiens (Human)); assay: cell-based; conditions: cAMP Antagonist, CHO-K1 cell line expressing human D2R/β-arrestin; quinpirole used as agonist
pIC50: −log10 of the molar value.
pIC50 values for the compounds below.

The examples below pair each entry with its known result.
{"compound": "CN(CC1CCN(CCOc2ccccc2)CC1)C(c1ccc(Cl)cc1)c1ccccn1 (single isomer, unassigned) [Compound 79b]", "assayed-target": "human D2R/β-arrestin (Homo sapiens (Human))", "pIC50": "< 4.52"}
{"compound": "O=C(NC(c1ccc(Cl)cc1)c1ccncc1F)C1CCN(CCOc2ccccc2)CC1 (centres unmarked)", "assayed-target": "human D2R/β-arrestin (Homo sapiens (Human))", "pIC50": "< 4.52"}
{"compound": "O=C(NC(c1cccnc1)c1ccccn1)C1CCN(CCOc2ccccc2)CC1 (centres unmarked)", "assayed-target": "human D2R/β-arrestin (Homo sapiens (Human))", "pIC50": "< 4.52"}
{"compound": "O=C(NC(c1ccc2c(c1)OC(F)(F)O2)c1ccccn1)C1CCN(CCOc2ccccc2)CC1 (centres unmarked)", "assayed-target": "human D2R/β-arrestin (Homo sapiens (Human))", "pIC50": "< 4.52"}
{"compound": "CN(CC1CCN(CCOc2ccccc2)CC1)C(c1ccc(Cl)cc1)c1ccccn1 (centres unmarked) [Compound 79]", "assayed-target": "human D2R/β-arrestin (Homo sapiens (Human))", "pIC50": "< 4.52"}
{"compound": "CC(C1CCN(CCOc2ccccc2)CC1)N(C)C(c1ccc(Cl)cc1)c1ccccn1 (single isomer, unassigned) [Compound 97d]", "assayed-target": "human D2R/β-arrestin (Homo sapiens (Human))", "pIC50": "6.00 to 7.00"}
{"compound": "CN(CC1CCN(CCOc2ccccc2C(F)(F)F)CC1)C(c1ccc(Cl)cc1)c1ccccn1 (centres unmarked)", "assayed-target": "human D2R/β-arrestin (Homo sapiens (Human))", "pIC50": "> 7.00"}

// query Report pIC50 for FC(F)(F)CN(CC1CCN(CCOc2ccccc2)CC1)C(c1ccc(Cl)cc1)c1ccccn1 (single isomer, unassigned) [Compound 125b] please.
// result 5.00 to 6.00

---

molecular target: human D2R/β-arrestin (Homo sapiens (Human)); assay: cell-based; conditions: cAMP Antagonist, CHO-K1 cell line expressing human D2R/β-arrestin; quinpirole used as agonist
Each entry below carries its reported IC50.

// known answers, use as guide
{"compound": "CC(C1CCN(CCOc2ccccc2)CC1)N(C)C(c1ccc(Cl)cc1)c1ccccn1 (single isomer, unassigned) [Compound 97a]", "assayed-target": "human D2R/β-arrestin (Homo sapiens (Human))", "IC50": "0.1 to 1 µM"}
{"compound": "O=C(NC(c1ccc(Cl)cc1)c1ccccn1)C1CCN(CCOc2cccc(Cl)c2)CC1 (single isomer, unassigned) [Compound 1b]", "assayed-target": "human D2R/β-arrestin (Homo sapiens (Human))", "IC50": "> 30 µM"}
{"compound": "O=C(NC(c1ccc(Cl)cc1)c1ccccn1)C1CCN(CCOc2cccc(Cl)c2)CC1 (stereo not drawn) [Compound 1]", "assayed-target": "human D2R/β-arrestin (Homo sapiens (Human))", "IC50": "> 30 µM"}

// query Entry CC(C)N(CC1CCN(CCOc2ccccc2F)CC1)C(c1ccc(Cl)cc1)c1ccccn1 (single isomer, unassigned) [Compound 133a] has what IC50?
// result < 0.1 µM

// query Dear colleague, I am looking for the recorded IC50 of the following compound: O=C(NC(c1ccc(F)cc1)c1ccccn1)C1CCN(CCOc2ccccc2F)CC1 (stereo not drawn)
// result 0.1 to 1 µM

// query Please give the measured IC50 for this compound: O=C(NC(c1ccc(Cl)cc1)c1ccccn1)C1CCN(CCOc2ccc(F)cc2F)CC1 (single isomer, unassigned) [Compound 115a]
// result > 30 µM

// query Any idea what IC50 was measured for O=C(NC(c1ccc(F)cc1)c1ccccn1)C1CCN(Cc2cc3ccccc3o2)CC1 (stereo not drawn) ?
// result 10 to 30 µM

// query Need IC50 of O=C(NC(c1ccc(Cl)cc1)c1ccccn1)C1CCN(CCOc2cc(F)ccc2F)CC1 (stereo not drawn) , thanks.
// result > 30 µM

// query Fill blank: measured IC50 of the compound O=C(NC(c1ccc(Cl)cc1)c1ccc(F)cn1)C1CCN(CCOc2ccccc2F)CC1 (single isomer, unassigned) [Compound 92b] is ____.
// result 1 to 10 µM

// query Fill in the blank: the reported IC50 of COc1ccccc1OCCN1CCC(C(=O)NC(c2ccc(Cl)cc2)c2ccccn2)CC1 (stereo not drawn) is ____.
// result < 0.1 µM

---

test: Plasma protein binding, rat; format: in vitro ADME; conditions: plasma, read-out: Plasma Protein Binding % bound
observation-type: fraction unbound

{"compound": "O=C(NC(c1ccccn1)C1CCCCC1)C1CCN(CCOc2ccccc2)CC1 (centres unmarked) [Compound 37]", "fraction unbound": 0.024}
{"compound": "O=C(NC(c1ccc(Cl)cc1)c1ccccn1)C1CCN(CCCc2ccccc2)CC1 (centres unmarked) [Compound 18]", "fraction unbound": 0.027}
{"compound": "Clc1ccc(C(NCC2CCN(CCOc3ccccc3)CC2)c2ccccn2)cc1 (centres unmarked) [Compound 114]", "fraction unbound": 0.005}

[I] O=C(NC(c1ccc(Cl)cc1)c1ccccn1)C1CCN(CCOc2ccccc2Cl)CC1 (centres unmarked) [Compound 66]
[II] COc1cccc(C(NC(=O)C2CCN(CCOc3ccccc3)CC2)c2ccccc2)c1 (centres unmarked) [Compound 146]
// query # compare fraction unbound for I vs II ; return the one with the smaller value Select an item and report its label.
// result I

[1] O=C(NC(c1ccc(Cl)cc1)c1ccccn1)C1CCN(CCOc2ccc(F)cc2F)CC1 (centres unmarked) [Compound 115]
[2] O=C(NC(c1ccncc1)c1ccc(Cl)cc1)C1CCN(CCOc2ccccc2)CC1 (centres unmarked) [Compound 112]
// query Parameter metric = fraction unbound. Return the lower-valued option from 1 and 2 . Answer format: the label of the selected item.
// result 1

---

target: human D2R/β-arrestin (Homo sapiens (Human), UniProt P14416); assay: cell-based; conditions: β-arrestin Antagonist, CHO-K1 cell line expressing human D2R/β-arrestin; quinpirole used as agonist
Sequence (P14416 whole entry): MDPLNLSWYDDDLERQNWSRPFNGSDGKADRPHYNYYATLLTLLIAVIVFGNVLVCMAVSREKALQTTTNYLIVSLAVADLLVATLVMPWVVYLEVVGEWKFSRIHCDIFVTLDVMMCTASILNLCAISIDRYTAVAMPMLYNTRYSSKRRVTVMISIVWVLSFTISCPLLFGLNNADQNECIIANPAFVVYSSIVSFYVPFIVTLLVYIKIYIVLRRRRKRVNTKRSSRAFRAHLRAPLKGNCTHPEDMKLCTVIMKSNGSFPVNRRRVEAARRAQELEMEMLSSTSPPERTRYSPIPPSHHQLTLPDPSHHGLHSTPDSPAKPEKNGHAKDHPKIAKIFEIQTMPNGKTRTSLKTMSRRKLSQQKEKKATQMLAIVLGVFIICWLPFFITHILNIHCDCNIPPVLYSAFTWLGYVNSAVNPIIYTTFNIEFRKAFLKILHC
observation-type: IC50

{"molecule": "O=C(NC(c1ccc(Cl)cc1)c1ccccn1)C1CCN(CCOc2c(F)cccc2F)CC1 (centres unmarked) [Compound 67]", "observation-type": "IC50", "recorded-result": "100 to 1000 nM"}

// query What is its IC50 for human D2R/β-arrestin (Homo sapiens (Human), UniProt P14416)? Entry: O=C(NC(c1cccc(OC(F)(F)F)c1)c1ccccn1)C1CCN(CCOc2ccccc2F)CC1 (centres unmarked) [Compound 93]
// result 100 to 1000 nM

// query API: value(readout= IC50, system= human D2R/β-arrestin (Homo sapiens (Human), UniProt P14416), query= O=C(NC(c1cccc(F)c1)c1ccccn1)C1CCN(CCOc2ccccc2)CC1 (centres unmarked) [Compound 26] )
// result 1000 to 10000 nM

// query Under human D2R/β-arrestin (Homo sapiens (Human), UniProt P14416): IC50 value of O=C(NC(c1ccc(F)cc1)c1ccccn1)C1CCN(CC2Cc3ccccc3C2)CC1 (centres unmarked) [Compound 61] ?
// result 10000 to 30000 nM

// query Tell me reported IC50 for COc1cccc(C(NC(=O)C2(C)CCN(CCOc3ccccc3)CC2)c2ccccn2)c1 (centres unmarked) [Compound 143] , tested with human D2R/β-arrestin (Homo sapiens (Human), UniProt P14416).
// result 1000 to 10000 nM

// query Form: Entry = O=C(NC(c1ccc(Cl)cc1)c1ccccn1)C1CCN(CCOc2ccccc2Cl)CC1 (centres unmarked) [Compound 66] | System = human D2R/β-arrestin (Homo sapiens (Human), UniProt P14416) | IC50 = ____
// result < 100 nM

// query Form entry - test system: human D2R/β-arrestin (Homo sapiens (Human), UniProt P14416); read-out: IC50; molecule: CC1(C(=O)NC(c2ccc(Cl)cc2)c2ccccn2)CCN(CCOc2ccccc2)CC1 (centres unmarked) [Compound 144]
// result < 100 nM

// query Please provide the recorded IC50 for O=C(NC(c1ccc(Cl)cc1)c1ccccn1)C1CCN(CCOc2cccc(Cl)c2)CC1 (single isomer, unassigned) [Compound 1a] , tested on human D2R/β-arrestin (Homo sapiens (Human), UniProt P14416).
// result 1000 to 10000 nM

---

Recorded pEC50 for the following molecules
biological target: human D2R/β-arrestin (Homo sapiens (Human), UniProt P14416); experiment: Gi/cAMP agonist assay (Lance Ultra cAMP, Forskolin); format: cell-based; conditions: CHO-K1 cell line expressing human D2R/β-arrestin
pEC50: −log10 of the molar value.

Use the examples below as a reference point.
{"molecule": "O=C(NC(c1ccccc1)c1ccc(F)cc1)C1CCN(CCOc2ccccc2)CC1 (stereo not shown) [Compound 45]", "recorded-result": "< 4.52"}
{"molecule": "O=C(NC(c1ccc2c(c1)OCO2)c1ccccn1)C1CCN(CCOc2ccccc2F)CC1 (single isomer, unassigned) [Compound 95b]", "recorded-result": "5.00 to 6.00"}
{"molecule": "Clc1ccc(C(NCC2CCN(CCOc3ccccc3)CC2)c2ccccn2)cc1 (single isomer, unassigned) [Compound 114b]", "recorded-result": "6.00 to 7.00"}

Let us move to another entry and its pEC50.
// query Consider the molecule O=C(NC(c1ccc(F)cc1)c1ccc(Cl)cc1)C1CCN(CCOc2ccccc2)CC1 (single isomer, unassigned) [Compound 42b] and give its measured pEC50.
// result 4.52 to 5.00
